- testedTarget: T1, human TIGIT expressed on cells (human, UniProt Q495A1 22-244)
- T1 construct: whole, on cells; on Jurkat E6.1 cells transduced with human TIGIT, on Promega TIGIT Effector cells or on human primary T cells; the assay field says which; also called hTIGIT; Jurkat-hTIGIT
- T1 sequence (looked up): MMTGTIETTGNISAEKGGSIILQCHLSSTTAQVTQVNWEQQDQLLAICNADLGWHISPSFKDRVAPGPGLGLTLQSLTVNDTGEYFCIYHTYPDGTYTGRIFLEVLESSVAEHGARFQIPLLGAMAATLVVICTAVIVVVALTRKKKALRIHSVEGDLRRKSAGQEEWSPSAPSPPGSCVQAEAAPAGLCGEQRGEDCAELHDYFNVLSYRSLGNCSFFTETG
- protocolText: flow cytometry, primary CD8+ T cells of cancer patients' PBMC, MFI
Recorded Fold change of EC50 over EC50 of best clone (31282) for the following binders
Reply with just the number (in fold).

Examples from the recorded data:
- binder: "313M32 (comparative anti-TIGIT antibody, human IgG1) (antibody, V domains shown, from WO2016/191643; made in HEK cells as human IgG1; the VL as printed ends at ...TFG (FR4 not complete); also called 313M2) VH: QVQLQESGPGLVKPSETLSLTCAVSGYSITSDYAWNWIRQPPGKGLEWIGYISYSGSTSYNPSLRSRVTISRDTSKNQFFLKLSSVTAADTAVYYCARRQVGLGFAYWGQGTLVTVSS VL: DIQMTQSPSSLSASVGDRVTITCKASQDVSTAVAWYQQKPGKAPKLLIYSASYRYTGVPSRFSGSGSGTDFTFTISSLQPEDIATYYCQQHYSTPWTFG"
  assayResult: 8.3
- binder: "TIG1 (comparative anti-TIGIT antibody, human IgG1) (antibody, V domains shown, from WO2017/152088; made in HEK cells as human IgG1) VH: DVQLVESGGGLVQPGGSRKLSCAASGFTFSNFGMHWVRQAPEKGLEWVAFISSGSSSIYYADTVKGRFTISRDNPKNTLFLQMTSLRSEDTAMYYCARMRLDYYAMDYWGQGTSVTVSS VL: DVQITQSPSYLAASPGETITINCRASKSISKYLAWYQEKPGKTNKLLIYSGSTLQSGIPSRFSGSGSGTDFTLTISSLEPEDFAMYYCQQHNEYPWTFGGGTKLEIK"
  assayResult: 2.7
- binder: "31C6 (MEB125.31C6.A1.205 VH4/VL1; comparative anti-TIGIT antibody, human IgG1) (antibody, V domains shown, from WO2016/028656; made in HEK cells as human IgG1; also called 3106 (as the text prints it)) VH: EVQLVQSGAEVKKPGASVKVSCKASGYTFSSYVMHWVRQAPGQGLEWIGYIDPYNDGAKYAQKFQGRVTLTSDKSTSTVYMELSSLRSEDTAVYYCARGGPYGWYFDVWGQGTTVTVSS VL: DIQMTQSPSSLSASVGDRVTITCRASEHIYSYLSWYQQKPGKAPKLLIYNAKTLAEGVPSRFSGSGSGTDFTLTISSLQPEDFATYYCQHHFGSPLTFGQGTRLEIK"
  assayResult: 1.5

Now for the binder whose Fold change of EC50 over EC50 of best clone (31282) we want.
Exam item: Quick check: Fold change of EC50 over EC50 of best clone (31282) of 22G2 (comparative anti-TIGIT antibody, human IgG1) (antibody, V domains shown, from WO2016/106302; made in HEK cells as human IgG1) VH: QVHLQESGPGLVKPSETLSLTCTVSGGSVSSGIYYWSWIRQPPGKGLEWIGYIYYSGSTNYNPSLKSRVTISVDTSKNQFSLKLSSVTAADTAVYYCARDYYVSGNYYNVDYYFFGVDVWGQGTTVTVSS VL: EIVLTQSPATLSLSPGERATLSCRASQSVSSYLAWYQQKPGQAPRLLIYDASNRATGIPARFSGSGSGTDFTLTISSLEPEDFAVYYCQQRSNWPPLFTFGPGTKVDIK ?
Marked response: 3.1
